# System: RSK4(Kin.Dom.2-C-terminal);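 note: KINOMEscan kinase panel screen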
# Construct: gene RPS6KA6
# setup_conditions: concentration: 1 μM, replicates: in singlicate; n = 1
So basically, the class depends on measured %Inh, and the ranges are lower range: < 20%; middle range: ≥ 20% and < 30%; upper range: ≥ 30%

| input_smiles | group_label |
| --- | --- |
| Nc1nc(-c2nccs2)c(-c2ccnc3ccccc23)s1 | upper range |
| Cc1cc(N2Cc3ccccc3C2)nc(Nc2ccc(S(=O)(=O)N3CCOCC3)cc2)n1.Cl | lower range |
| COc1ccc(Nc2nccc(NCCNC(=O)Nc3ccccc3F)n2)cc1 | middle range |
| CC(C)(C)c1ccc(C(=O)Nc2cn3cc(Cl)ccc3n2)cc1 | middle range |
| COc1ccc(Nc2nccc(-c3cccc(NC(=O)c4cc5cc(F)ccc5[nH]4)c3)n2)cc1 | middle range |
| Cl.Oc1ccc(-c2nc(-c3ccccc3)[nH]c2-c2ccncc2)cc1 | upper range |
| COc1cccc(-c2cc(-c3c[nH]nc3-c3ccccn3)ccn2)c1 | upper range |
| Fc1cccc(COc2nnc(-c3ccc4c(c3)CCO4)o2)c1 | lower range |
| O=S(=O)(c1ccc(-c2ccnc3[nH]ccc23)cc1)N1CCCC1 | upper range |
| O=c1cc(N2CCOCC2)nc2n(Cc3cccc(Cl)c3Cl)ccn12 | lower range |
| Cc1cc(NCC(c2ccccc2)c2ccccc2)nc(NCc2ccc(C(F)(F)F)cc2)n1 | middle range |
| Cn1ccc2ncnc(Oc3ccc(Nc4nc5ccccc5[nH]4)cc3)c21 | lower range |
| Cc1ccc(NC(=O)Nc2cccc(Cl)c2)cc1-c1ccc(C(=O)Nc2ccncc2)cc1 | lower range |
